Test system: HCC-2998 colon
Test Name: NCI tumour cell line growth inhibition, 48 h
Could you label it yes (1) if measured TGI is 30 µM or higher, and no (0) otherwise?

Study these solved cases before continuing.
COc1ccc(-c2cn[nH]c2-c2cc(OC)c3c(c2)OCCO3)cc1
no (0)
CN1C(=O)C(Cl)(C(Cl)(Cl)S(=O)(=O)O)C(=O)c2ccccc21 (stereo unspecified)
yes (1)
NCCCCNCCCNC(=O)c1nc(-c2csc(CCN)n2)sc1Cl
yes (1)
COc1ccc(Cl)cc1Nc1nc(C(F)(F)F)ccc1C(=O)N/N=C/c1cc(OC)c(OC)c(OC)c1
no (0)
COC(=O)[C@@H]1C[C@@]2(C3C=CN(C(=O)C(F)(F)F)C=C3)c3ccccc3N(C(=O)C(F)(F)F)[C@H]2N1C(=O)OC
yes (1)
CC(=O)c1cc2ccccc2n(O)c1=N
yes (1)

Confirm if TGI reported for the compound C[N+]1(C)C/C(=C\c2ccncc2)C(=O)/C(=C/c2ccncc2)C1 is 30 µM or above.
yes (1)

Could you tell me if the measured TGI of CCc1ccc2c(c1)CC1(C2)Cc2cc3c(cc2C1)C(=O)CC3 (stereo unspecified) reaches 30 µM or more?
yes (1)

Is TGI for CSc1c(C#N)c2n(c3ccccc13)c1ccccc1[n+]2C at or above 30 µM?
yes (1)

---

Test system: HOP-92 NSCLC
Test Name: NCI tumour cell line growth inhibition, 48 h
Entries annotated with measured TGI

Worked examples, 5 compounds total:
COc1cc(/C=C2\CCC(C)C3=C2NC(=S)NC3c2cc(OC)c(OC)c(OC)c2)cc(OC)c1OC (stereo unspecified)
> 100 µM
Cc1cc(C)n(CN(Cn2nc(C)cc2C)C2CCCCC2)n1
87.5 µM
NC(N)=NS(=O)(=O)c1ccc(NC(=O)c2ccc3nc4ccccc4c(Nc4ccc(S(N)(=O)=O)cc4)c3c2)cc1
> 100 µM
Cc1cc(=O)oc2cc(O)ccc12
> 100 µM
Clc1ccc(N=c2oc3ccccc3cc2-c2nc3ccccc3[nH]2)c(Cl)c1
> 100 µM

Fill in: HOP-92 NSCLC TGI for O=c1oc2ccc(Cl)cc2cc1-c1cn2cc(Cl)ccc2n1 = > 100 µM

---

Tested on: SNB-19 CNS
Test Name: NCI tumour cell line growth inhibition, 48 h
The following molecules are listed with their measured TGI values.

# annotated cases, reported TGI shown
COc1c(C)c(OC)c2c(c1O)[C@@H]1[C@@H]3Cc4c(OC)c(C)c(OC)c(O)c4[C@H](CNC(=O)c4cnc5ccccc5n4)N3[C@@H](C#N)[C@H](C2)N1C
> 0.0533 µM
O=c1ccc(=O)c2c(=O)c3ccccc3c(=O)c1=2
> 100 µM

// next item, TGI requested
Measured TGI of O=c1[nH]nc(Cc2ccccc2)n1-n1cnnc1 : > 100 µM

---

Tested on: A498 renal
Test Name: NCI tumour cell line growth inhibition, 48 h; in the data active means GI50 below about 0.43 µM; inactive means the rest
Response enum: True = active, False = inactive

A selection of reference data follows.
COC(=O)CCC1=C(C)/C(=C/c2[nH]c(-c3ccc[nH]3)cc2OC)N=C1C
False
CN(C)C(=O)O[C@@H]1CN[C@@H](C#Cc2cc3ncnc(Nc4ccc(OCc5cccc(F)c5)c(Cl)c4)c3s2)C1
False
O=C1CCCN1CC#CCN1CCCC1
False

How did this test come out for CCC(c1cccc(O)c1)C(CC)c1cccc(O)c1 (stereo not given) ?
False

Record lookup: outcome of this test for Cn1cc(CNCC2CCN(c3ncc(C(=O)NO)cn3)CC2)c2ccccc21 ?
True

These entries and their values trace back to PubChem BioAssay (NCI).
